src = patent US12291522B2

- tested target: hCRBN (NanoLuc-CRBN fusion construct in HEK-293 cells) (Homo sapiens)
- Sequence (Q96SW2 whole entry, the tested form may be a part): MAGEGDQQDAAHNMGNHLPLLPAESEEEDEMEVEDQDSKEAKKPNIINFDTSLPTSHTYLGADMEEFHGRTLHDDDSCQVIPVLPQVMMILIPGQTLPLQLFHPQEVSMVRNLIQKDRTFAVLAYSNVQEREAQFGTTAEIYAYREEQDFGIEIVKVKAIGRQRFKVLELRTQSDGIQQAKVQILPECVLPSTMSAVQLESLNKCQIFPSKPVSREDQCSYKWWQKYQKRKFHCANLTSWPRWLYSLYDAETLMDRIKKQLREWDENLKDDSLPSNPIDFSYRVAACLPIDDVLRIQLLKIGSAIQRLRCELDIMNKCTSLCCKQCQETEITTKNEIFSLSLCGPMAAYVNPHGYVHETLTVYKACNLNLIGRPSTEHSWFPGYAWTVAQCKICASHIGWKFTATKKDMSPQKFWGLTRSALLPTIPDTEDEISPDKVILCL
- test description: CRBN BRET Target Engagement
- assay setup: NanoLuc-CRBN transfected HEK-293 cells, BRET with CRBN Probe
- Experimental: CRBN BRET Target Engagement (hCRBN IC50 (μM)) NanoLuc-CRBN fusion construct was transfected in HEK-293 cells using FuGENE HD (Promega) according to the manufacturer's protocol. […] For BRET measurements, cells were seeded in a 384-well nonbinding surface plate (Corning) plate for a final count of 10,000 cells/well. […] For all BRET experiments, the Envision 2015 (Perkin Elmer) equipped with a BRET2 Enh mirror, BRET 647 nM/75 nM Bandwidth and BC703 460 nM/80 nM Bandwidth filters was used for readouts. […]
readout name: pIC50
Remember the convention: pIC50 equals -log10 of concentration in molar.

I am curious: what pIC50 value has been reported for Cc1nc([C@@H]2O[C@H](CO)[C@H](O)[C@H](n3cc(-c4cc(F)c(Cl)c(F)c4)nn3)[C@H]2OCC(=O)N2CC(COc3ccc(C(=O)Nc4ccc5c(c4)CN(C4CCC(=O)N(C)C4=O)C5=O)cc3)C2)n(-c2cc(Cl)ccc2C(F)(F)F)n1 (some centres unmarked) ?
5.05

I am curious: what pIC50 value has been reported for Cc1nc([C@@H]2O[C@H](CO)[C@H](O)[C@H](n3cc(-c4cc(F)c(Cl)c(F)c4)nn3)[C@H]2OCC(=O)N2CCC(Oc3ccc(C(=O)Nc4ccc5c(c4)CN(C4CCC(=O)NC4=O)C5=O)cc3)CC2)n(-c2cc(Cl)ccc2C(F)(F)F)n1 (some centres unmarked) ?
6.35

* * *

- tested target: Gal3 (Human Galectin-3) in THP-1 cells (Homo sapiens, UniProt P17931)
- Construct: host or cells: THP-1
- Sequence (P17931 whole entry): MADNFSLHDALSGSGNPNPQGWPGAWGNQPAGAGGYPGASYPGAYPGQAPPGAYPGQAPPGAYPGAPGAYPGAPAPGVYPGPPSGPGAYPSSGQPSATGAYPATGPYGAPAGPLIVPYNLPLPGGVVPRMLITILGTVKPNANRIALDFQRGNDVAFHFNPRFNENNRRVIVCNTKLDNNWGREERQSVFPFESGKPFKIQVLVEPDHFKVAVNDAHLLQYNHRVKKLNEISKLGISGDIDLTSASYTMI
- test description: ELISA Gal3 Degradation Assay in THP-1 Cells
- Type: cell-based
- assay setup: 48 hours, culture media Gal3 by ELISA, test 2, read-out: Supernatant (IC50) test 2
readout name: IC50

I am curious: what IC50 value has been reported for Cc1nc([C@@H]2O[C@H](CO)[C@H](O)[C@H](n3cc(-c4cc(F)c(Cl)c(F)c4)nn3)[C@H]2OCC(=O)N2CCC(COc3ccc(C(=O)Nc4ccc5c(c4)CN(C4CCC(=O)NC4=O)C5=O)cc3)CC2)n(-c2cc(Cl)ccc2C(F)(F)F)n1 (stereo partly shown) ?
40 nM

I am curious: what IC50 value has been reported for `Cc1nc([C@@H]2O[C@H](CO)[C@H](O)[C@H](n3cc(-c4cc(F)c(Cl)c(F)c4)nn3)[C@H]2OCC(=O)N[C@H]2C[C@@H](Oc3ccc(C(=O)Nc4ccc5c(c4)CN([C@H]4CCC(=O)NC4=O)C5=O)nc3)C2)n(-c2cc(Cl)ccc2C(F)(F)F)n1` ?
< 10 nM

I am curious: what IC50 value has been reported for Cc1nc([C@@H]2O[C@H](CO)[C@H](O)[C@H](n3cc(-c4cc(F)c(Cl)c(F)c4)nn3)[C@H]2OCC(=O)N2CC3(CC(Oc4ccc(C(=O)Nc5ccc6c(c5)CN(C5CCC(=O)NC5=O)C6=O)cc4)C3)C2)n(-c2cc(Cl)ccc2C(F)(F)F)n1 (stereo partly shown) ?
210 nM

I am curious: what IC50 value has been reported for `Cc1nc([C@@H]2O[C@H](CO)[C@H](O)[C@H](n3cc(-c4cc(F)c(Cl)c(F)c4)nn3)[C@H]2OCC(=O)NCCOCC(=O)N[C@H](C(=O)N2C[C@H](O)C[C@H]2C(=O)NCc2ccc(-c3scnc3C)cc2)C(C)(C)C)n(-c2cc(Cl)ccc2C(F)(F)F)n1` ?
42 nM
